- Protocol Summary: MTT antiproliferative assay (neutral control)
- Assay Conditions: human
Measurement Kind: IC50 at 48 h

Example entries begin here.
Ask: Which IC50 at 48 h value is on record for CC(=O)c1cc(C(=O)O[C@@H]2/C=C/C(=O)O[C@@H](O)CCC/C=C/[C@@H]3C[C@H](O)C[C@H]32)ccc1OCCN1CCCC2CCCNC21 (stereo partly drawn) [Compound 3DPQ-8] ?
Result: > 100 nM

Ask: Which IC50 at 48 h value is on record for CC(=O)c1cc(C(=O)O[C@@H]2/C=C/C(=O)O[C@@H](O)CCC/C=C/[C@@H]3C[C@H](O)C[C@H]32)ccc1OCCN1C=Cc2ccccc2C1 [Compound 3DPQ-7] ?
Result: > 100 nM

Ask: Which IC50 at 48 h value is on record for CC(=O)c1cc(C(=O)O[C@@H]2/C=C/C(=O)O[C@@H](O)CCC/C=C/[C@@H]3C[C@H](O)C[C@H]32)ccc1OCCN(C)C [Compound 3DPQ-2] ?
Result: > 100 nM

Ask: Which IC50 at 48 h value is on record for CC(=O)c1cc(C(=O)O[C@@H]2/C=C/C(=O)O[C@@H](O)CCC/C=C/[C@@H]3C[C@H](O)C[C@H]32)ccc1OCCN1CCCC(O)C1=O (stereo partly drawn) [Compound 3DPQ-12] ?
Result: > 100 nM

Ask: Which IC50 at 48 h value is on record for C[C@H]1CCC/C=C/[C@@H]2C[C@H](O)C[C@H]2[C@H](O)/C=C/C(=O)O1 [BFA, Brefeldin A, reference compound] ?
Result: > 100000 nM

Could I get IC50 at 48 h for every one of these entries?
1. CC(=O)c1cc(C(=O)O[C@@H]2/C=C/C(=O)O[C@@H](O)CCC/C=C/[C@@H]3C[C@H](O)C[C@H]32)ccc1OCCN1Cc2cccnc2C1 [Compound 3DPQ-6]
2. CC(=O)c1cc(C(=O)O[C@@H]2/C=C/C(=O)O[C@@H](O)CCC/C=C/[C@@H]3C[C@H](O)C[C@H]32)ccc1OCCS(=O)(=O)O [Compound 3DPQ-4]
3. CC(=O)c1cc(C(=O)OC2/C=C/C(=O)O[C@@H](O)CCC/C=C/[C@@H]3C[C@H](O)C[C@@H]23)ccc1OCCN1CCC=C(C(=O)O)C1 (stereo partly drawn) [Compound 3DPQ-3]
4. CC(=O)c1cc(C(=O)OC2C=CC(=O)OC(O)CCCC=CC3CC(O)CC32)ccc1OCCN1C(=O)CCC1=O (stereo not drawn) [Compound 3DPQ-5]
5. CC(=O)c1cc(C(=O)O[C@@H]2/C=C/C(=O)O[C@@H](O)CCC/C=C/[C@@H]3C[C@H](O)C[C@H]32)ccc1OCCN1CCCC1 [Compound 3DPQ-11]
6. CNCCOc1ccc(C(=O)O[C@@H]2/C=C/C(=O)O[C@@H](O)CCC/C=C/[C@@H]3C[C@H](O)C[C@H]32)cc1C(C)=O [Compound 3DPQ-1]
7. CC(=O)c1cc(C(=O)O[C@@H]2/C=C/C(=O)O[C@@H](O)CCC/C=C/[C@@H]3C[C@H](O)C[C@H]32)ccc1OCCN1CCCCC1 [Compound 3DPQ-10]

Result:
> 100 nM
> 100 nM
> 100 nM
> 100 nM
> 100 nM
> 100 nM
> 100 nM

Values from paper PMC9101642
